- System: HCC 24
- assay procedure: IC50 in PDO line
- Type: cell-based
- conditions: Homo sapiens
measurement kind: IC50 (nM)
Answers are plain numbers, in nM.

Query :: Value wanted: IC50 (HCC 24) of entry COC(=O)C[C@](O)(CCCC(C)(C)O)C(=O)O[C@@H]1C(OC)=C[C@]23CCCN2CCc2cc4c(cc2[C@H]13)OCO4 [omacetaxine, omacetaxine mepusuccinate]
Result :: 148

---

- System: HCC 65-3
- assay procedure: IC50 in PDO line
- Assay type: cell-based
- conditions: Homo sapiens
measurement kind: IC50
Don't forget the unit after the number, please.

Query :: # IC50 lookup, item COC(=O)C[C@](O)(CCCC(C)(C)O)C(=O)O[C@@H]1C(OC)=C[C@]23CCCN2CCc2cc4c(cc2[C@H]13)OCO4 [omacetaxine, omacetaxine mepusuccinate]
Result :: 2.26 nM
